# Assay target: K2P2.1 (TREK-1) (Mus musculus)
# Construct: expressed in transfected cells; host or cells: Xenopus laevis oocytes injected with mRNA (pGEMHE/pMO vector)
# Sequence (P97438 1-411 isoform P97438-2): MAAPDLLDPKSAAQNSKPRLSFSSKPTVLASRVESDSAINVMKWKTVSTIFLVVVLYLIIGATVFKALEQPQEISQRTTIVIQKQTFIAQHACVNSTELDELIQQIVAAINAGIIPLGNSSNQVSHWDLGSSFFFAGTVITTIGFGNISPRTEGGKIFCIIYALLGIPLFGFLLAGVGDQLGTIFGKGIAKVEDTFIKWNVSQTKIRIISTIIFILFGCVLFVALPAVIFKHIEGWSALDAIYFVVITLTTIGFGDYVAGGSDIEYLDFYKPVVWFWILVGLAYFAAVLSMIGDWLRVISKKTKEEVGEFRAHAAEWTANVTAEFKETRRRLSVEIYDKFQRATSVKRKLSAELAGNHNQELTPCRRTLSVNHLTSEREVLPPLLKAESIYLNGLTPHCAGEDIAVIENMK
# Assay comment: Two-electrode voltage clamp (TEVC) in Xenopus oocytes
# Assay type: cell-based
# Conditions used: Fold-activation at 20 uM in oocytes
Measured property: TREK-1 activity class

Answered cases to consult:
C#CCNC(=O)CCC(=C)C(=O)Nc1ccc(C(=O)NCc2ccc(Cl)cc2Cl)cc1    +++ (>5 fold)
CC1(C)OB(Cc2ccc(C(=O)NCc3ccc(Cl)cc3Cl)cc2)OC1(C)C    + (1.5-2.5 fold)
CS(=O)(=O)Nc1ccc(C(=O)NCc2ccc(Cl)c(Cl)c2)cc1    +++ (>5 fold)
CS(=O)(=O)Nc1cccc(C(=O)NCc2ccc(Cl)cc2Cl)c1    ++ (2.5-5 fold)

Per the record, CS(=O)(=O)Nc1ccc(C(=O)NCc2ccc(Cl)c(F)c2)cc1 has TREK-1 activity class of + (1.5-2.5 fold)

Per the record, C#CCNC(=O)CC(=C)C(=O)Nc1ccc(C(=O)NCc2ccc(Cl)cc2Cl)cc1 has TREK-1 activity class of +++ (>5 fold)

Per the record, O=C(NCc1ccc(Cl)cc1Cl)c1ccc(NC(=O)C(F)(F)F)cc1 has TREK-1 activity class of ++ (2.5-5 fold)

Per the record, O=C(NCc1ccc(Cl)cc1Cl)c1ccc(CB(O)O)cc1 has TREK-1 activity class of + (1.5-2.5 fold)

Per the record, C=C1CC(=O)N(c2ccc(C(=O)NCc3ccc(Cl)cc3Cl)cc2)C1=O has TREK-1 activity class of + (1.5-2.5 fold)

====

# Assay target: K2P2.1 (TREK-1) (Mus musculus)
# Construct: expressed in transfected cells; host or cells: Xenopus laevis oocytes injected with mRNA (pGEMHE/pMO vector)
# Assay comment: Two-electrode voltage clamp (TEVC) in Xenopus oocytes
# Assay type: cell-based
# Conditions used: 20 uM; oocytes expressing TREK1
Measured property: TREK-1 fold-activation (fold)
Give just the number in fold; leave the unit off.

Per the record, O=C(NCc1ccc(Cl)cc1Cl)c1ccc(CB(O)O)cc1 [Entry 25] has TREK-1 fold-activation of 1.5

Per the record, CS(=O)(=O)Nc1ccc(C(=O)NCc2ccc(Br)cc2Cl)cc1 [Entry 41] has TREK-1 fold-activation of 3.3

Per the record, CS(=O)(=O)Nc1ccc2c(c1)CCCN(Cc1ccc(Cl)cc1Cl)C2=O [Entry 44] has TREK-1 fold-activation of 1.0

Per the record, CS(=O)(=O)Nc1ccc2c(c1)OCCN(Cc1ccc(Cl)cc1Cl)C2=O [Entry 43] has TREK-1 fold-activation of 1.6

Per the record, O=C(NCc1ccc(Cl)cc1Cl)c1ccc(NC(=O)C(F)(F)F)cc1 [Entry 28] has TREK-1 fold-activation of 3.3

Per the record, NC(=O)Nc1ccc(C(=O)NCc2ccc(Cl)cc2Cl)cc1 [Entry 35] has TREK-1 fold-activation of 6.4

Per the record, C=CS(=O)(=O)Nc1ccc(C(=O)NCc2ccc(Cl)cc2Cl)cc1 [Entry 11] has TREK-1 fold-activation of 1.3

Per the record, O=C(COCCOCCNC(=S)Nc1ccc2c(c1)C(=O)OC21c2ccc(O)cc2Oc2cc(O)ccc21)Nc1ccc(C(=O)NCc2ccc(Cl)cc2Cl)cc1 [Entry 46] has TREK-1 fold-activation of 4

Per the record, CS(=O)(=O)Nc1ccc(C(=O)NCc2ccc(Cl)c(Cl)c2)cc1 [Entry 38] has TREK-1 fold-activation of 4.8

Per the record, CS(=O)(=O)Nc1ccc2c(c1)CCN(Cc1ccc(Cl)cc1Cl)C2=O [Entry 45] has TREK-1 fold-activation of 1.1

Per the record, C#CCN(C(=O)C=C)c1ccc(C(=O)NCc2ccc(Cl)cc2Cl)cc1 [Entry 9] has TREK-1 fold-activation of 1.0

Per the record, CNS(=O)(=O)c1ccc(C(=O)NCc2ccc(Cl)c(Cl)c2)cc1 [Entry 37] has TREK-1 fold-activation of 1.5

Per the record, CS(=O)(=O)Nc1cccc(C(=O)NCc2ccc(Cl)cc2Cl)c1 [Entry 33] has TREK-1 fold-activation of 2.2

Per the record, O=C(NCc1ccc(Cl)cc1Cl)c1cccc(CB(O)O)c1 [Entry 23] has TREK-1 fold-activation of 1.0

Per the record, CS(=O)(=O)Nc1ncc(C(=O)NCc2ccc(Cl)cc2Cl)cn1 [Entry 42] has TREK-1 fold-activation of 1.4

Per the record, CNS(=O)(=O)c1ccc(C(=O)NCc2ccc(Cl)cc2Cl)cc1 [Entry 36] has TREK-1 fold-activation of 3
